Assayed system: T1, His-tagged P3028 (human, not fully specified)
T1 construct: the tag is put first after 'PGE73=His-tag-P3028'; also called PGE73; not shown: His-tag
T1 peptide: {His‑tag}-VFDEFKPLVEEPQNLIK
Assay details: chip ELISA
No end group written: not given here.
List of ELISA signal values.
Reply: number alone, nothing else.

Q) Provide one value: measured ELISA signal of KKLDTFFVNLSLFTER [P28R K9N]
A) 256

Q) Provide one value: measured ELISA signal of KKLLTFFVKLSLFTER [P28R D4L]
A) 303

Q) Provide one value: measured ELISA signal of KKLDTFFVKLSLATER [P28R F13A]
A) 525

Q) Provide one value: measured ELISA signal of KKLWTFFVKLSLFTER [P28R D4W]
A) 443

Q) Provide one value: measured ELISA signal of KHLDTFFVKLSLFTER [P28R K2H]
A) 394

Q) Provide one value: measured ELISA signal of KKLDTFFVILSLFTER [P28R K9I]
A) 190

Q) Provide one value: measured ELISA signal of KKLYTFFVKLSLFTER [P28R D4Y]
A) 422

Q) Provide one value: measured ELISA signal of KKLDTHFVKLSLFTER [P28R F6H]
A) 332

Q) Provide one value: measured ELISA signal of KKLDTFFVKLSLFTDR [P28R E15D]
A) 404

Q) Provide one value: measured ELISA signal of TKLDTFFVKLSLFTER [P28R K1T]
A) 493

Q) Provide one value: measured ELISA signal of KKADTFFVKLSLFTER [P28R L3A]
A) 427

Q) Provide one value: measured ELISA signal of KKLDTFFVKISLFTER [P28R L10I]
A) 415

Q) Provide one value: measured ELISA signal of KKLDTFFVKLSLLTER [P28R F13L]
A) 448

Q) Provide one value: measured ELISA signal of KKLDTFFVKLSLFTAR [P28R E15A]
A) 174

Q) Provide one value: measured ELISA signal of KKLDTFFAKLSLFTER [P28R V8A]
A) 299
